Ref: the supplement of paper PMC11451515

tested on: P12-Ichikawa; assay: cell viability relative to DMSO control; higher = less cytotoxic; conditions: HPLM + 10% dialyzed FBS; 48 h; 0.0211 µM
Endpoint Name: cell viability

>>> result_value("COc1cc2c(Nc3ccc(NC(=O)c4ccccc4)cc3)ncnc2cc1OCCCN1CCOCC1")
"125%"
>>> result_value("NC(=O)N1c2ccccc2CC(=O)c2ccccc21")
"125%"
>>> result_value("O=[N+]([O-])c1cn2c(n1)OC[C@@H](OCc1ccc(OC(F)(F)F)cc1)C2")
"120%"
>>> result_value("CC[C@]1(O)C[C@H]2CN(CCC3=C([NH]C4=C3C=CC=C4)[C@@](C2)(C(=O)OC)C5=CC6=C(C=C5OC)N(C=O)[C@H]7[C@](O)([C@H](OC(C)=O)[C@]8(CC)\\C=C/C[N@@]9CC[C@]67[C@H]89)C(=O)OC)C1")
"82.3%"
>>> result_value("CN1C(=O)\\C(=C/C(=C1/NC2=C(F)C=C(I)C=C2)C(=O)NOCCO)C")
"93.4%"
>>> result_value("CNC(=O)[C@H](Cc1ccccc1)NC(=O)[C@H](CC(C)C)[C@H](CSc1cccs1)C(=O)NO")
"98.3%"
>>> result_value("Clc1cccc(-c2nnnn2Cc2cccnc2)c1Cl")
"95.5%"
>>> result_value("CCC1=C[C@@H]2CN(C1)Cc1c([nH]c3ccccc13)[C@@](C(=O)OC)(c1cc3c(cc1OC)N(C)[C@H]1[C@@](O)(C(=O)OC)[C@H](OC(C)=O)[C@]4(CC)C=CCN5CC[C@]31[C@@H]54)C2")
"85.4%"
>>> result_value("Cc1nc(Nc2ncc(C(=O)Nc3c(C)cccc3Cl)s2)cc(N2CCN(CCO)CC2)n1")
"104%"
>>> result_value("CNC(=O)c1ccc(Nc2ncc(C(F)(F)F)c(NCc3nccnc3N(C)[S+](C)(=O)[O-])n2)cc1")
"118%"
>>> result_value("CC#C[C@]1(O)CC[C@H]2[C@@H]/3CCC/4=C/C(=O)CCC4=C3[C@H](C[C@]12C)C5=CC=C(C=C5)N(C)C")
"105%"
>>> result_value("CCCCN(CCCC)CCC(O)c1cc2c(Cl)cc(Cl)cc2c2cc(C(F)(F)F)ccc12 (stereo not drawn)")
"120%"
>>> result_value("CC(=O)N1CCN(c2ccc(OCc3nn(C)c(C)c3-c3cccc4c(CCCOc5cc(C)c(Cl)c(C)c5)c(C(=O)O)n(Cc5cccnc5)c34)cc2)CC1")
"115%"

###

system: NOMO1; test: AUC of viability dose-response curve (% viability x log10 dose units); higher = less sensitive; settings: HPLM + 10% dialyzed FBS; 48 h
Under this convention, condition met denotes AUC of viability dose-response curve strictly below 400 and condition not met denotes AUC of viability dose-response curve at or above 400.

>>> category_label("O=C(NCc1ccncc1)C12C[C@H]3C[C@@H](C1)CC(c1ccc(Cl)cc1)(C3)C2")
"condition not met"
>>> category_label("CNC(=O)c1cccc(-c2ccc3c(N4CCOC[C@@H]4C)nc(N4CCOC[C@@H]4C)nc3n2)c1")
"condition met"
>>> category_label("COc1ccc2c(c[n+](C)c3c4cc5c(cc4ccc23)OCO5)c1OC")
"condition not met"
>>> category_label("CCCCCCCCCCCC(CC1OC(=O)C1CCCCCC)OC(=O)C(CC(C)C)NC=O (stereo not drawn)")
"condition not met"
>>> category_label("C=C(C)[C@@H]1CC[C@]2(C)CC[C@]3(C)[C@H](CC[C@@H]4[C@@]5(C)CC[C@H](O)C(C)(C)[C@@H]5CC[C@]43C)[C@@H]12")
"condition not met"
>>> category_label("O=[N+]([O-])c1cn2c(n1)OC[C@@H](OCc1ccc(OC(F)(F)F)cc1)C2")
"condition not met"
>>> category_label("O=C(NC1CCNCC1)c1n[nH]cc1NC(=O)c1c(Cl)cccc1Cl")
"condition met"
>>> category_label("Cc1ccc(-n2nc(C(C)(C)C)cc2NC(=O)Nc2ccc(OCCN3CCOCC3)c3ccccc23)cc1")
"condition not met"

###

system: P12-Ichikawa; test: cell viability relative to DMSO control; higher = less cytotoxic; conditions: RPMI 5 mM glucose + 10% FBS; 48 h; 1.71 µM
Endpoint Name: cell viability (%)

>>> result_value("Cc1cc2c(C(C)C)c(O)c(O)c(C=O)c2c(O)c1-c1c(C)cc2c(C(C)C)c(O)c(O)c(C=O)c2c1O")
101
>>> result_value("OC[C@H]1O[C@@H](Oc2ccc(O)cc2)[C@H](O)[C@@H](O)[C@@H]1O")
83.6
>>> result_value("O=C1CSC(=O)N1C(CCc1ccncc1)COc1ccc(-c2cccc([N+](=O)[O-])c2)cc1 (configuration not stated)")
110
>>> result_value("Cc1cc(Nc2ncc(Cl)c(Nc3ccccc3[S+](=O)([O-])C(C)C)n2)c(OC(C)C)cc1C1CCNCC1")
96.1
>>> result_value("CN1C(=O)\\C(=C/C(=C1/NC2=C(F)C=C(I)C=C2)C(=O)NOCCO)C")
84.7
>>> result_value("CC[C@H]1OC(=O)[C@H](C)[C@@H](O[C@H]2C[C@@](C)(OC)[C@@H](O)[C@H](C)O2)[C@H](C)[C@@H](O[C@@H]2O[C@@H](C)C[C@H](N(C)C)[C@H]2O)[C@](C)(O)C[C@@H](C)C(=O)[C@H](C)[C@@H](O)[C@]1(C)O")
87.8
>>> result_value("CCOC(=O)Nc1ccc(NCc2ccc(F)cc2)cc1N")
114

###

The compounds listed here are annotated with their cell viability.
test system: NOMO1; assay: cell viability relative to DMSO control; higher = less cytotoxic; conditions: HPLM + 10% dialyzed FBS; 48 h; 0.000781 µM
Endpoint Name: cell viability (%)

>>> result_value("Clc1ccc(C2(c3ccc(-c4cn[nH]c4)cc3)CCNCC2)cc1")
80.5
>>> result_value("CSC1=CC(=CC=C1)NC2=NC3=C(C=N2)/C=C(C(=O)N3C)/C4=C(Cl)C=CC=C4Cl")
96.6
>>> result_value("C#CCN(C)[C@H](C)Cc1ccccc1")
88.2
>>> result_value("CNC(=O)[C@H](Cc1ccccc1)NC(=O)[C@H](CC(C)C)[C@H](CSc1cccs1)C(=O)NO")
79.9
>>> result_value("CN(C)Cc1ccc(-c2nc3cccc4c3n2CCNC4=O)cc1")
91.1
>>> result_value("Cc1ccc(NC(=O)C2(c3ccc4c(c3)OC(F)(F)O4)CC2)nc1-c1cccc(C(=O)O)c1")
107
>>> result_value("COc1cc(N2CCC(O)CC2)ccc1Nc1cc(Nc2ccccc2[S+](=O)([O-])C(C)C)c2cc[nH]c2n1")
105

###

system: NOMO1; test: cell viability relative to DMSO control; higher = less cytotoxic; conditions: RPMI 5 mM glucose + 10% FBS; 48 h; 0.000781 µM
Endpoint Name: cell viability (%)

>>> result_value("CC[C@]1(O)C[C@H]2CN(CCC3=C([NH]C4=C3C=CC=C4)[C@@](C2)(C(=O)OC)C5=CC6=C(C=C5OC)N(C=O)[C@H]7[C@](O)([C@H](OC(C)=O)[C@]8(CC)\\C=C/C[N@@]9CC[C@]67[C@H]89)C(=O)OC)C1")
120
>>> result_value("CC/1=C/N([C@@H]2C[C@@H](O)[C@H](CO)O2)C(=O)NC1=O")
84.9
>>> result_value("COc1cc2nccc(Oc3ccc(NC(=O)C4(C(=O)Nc5ccc(F)cc5)CC4)cc3)c2cc1OC")
95.6
>>> result_value("COc1cc(N2CCC(C(N)=O)CC2)ccc1Nc1nc(N)c(Cl)c(Nc2ccccc2[S+](=O)([O-])C(C)C)n1")
91.9
>>> result_value("C=C(C)[C@@H]1CC[C@]2(C)CC[C@]3(C)[C@H](CC[C@@H]4[C@@]5(C)CC[C@H](O)C(C)(C)[C@@H]5CC[C@]43C)[C@@H]12")
106
>>> result_value("Fc1cc(-c2cccc3ncc(-c4cnn(C5CCNCC5)c4)nc23)cc(F)c1CN1CCOCC1")
109
>>> result_value("C[C@H]1CN(C[C@@H](C)O1)CC(=O)NC2=CC=C3SC4=C(CC3=C2)C=CC=C4\\C5=C\\C(=O)\\C=C(/O5)N6CCOCC6")
93.4

###

test system: P12-Ichikawa; test: AUC of viability dose-response curve (% viability x log10 dose units); higher = less sensitive; conditions: HPLM + 10% dialyzed FBS; 48 h
Endpoint Name: AUC of viability dose-response curve

>>> result_value("C[C@H]([C@H](O)CCC(C)(C)O)[C@H]1CC[C@@]2(O)C/3=C/C(=O)[C@@H]4C[C@@H](O)[C@@H](O)C[C@]4(C)[C@H]3CC[C@]12C")
460
>>> result_value("COC[C@H](NC(=O)c1cnc(C)s1)C(=O)N[C@@H](COC)C(=O)N[C@@H](Cc1ccccc1)C(=O)[C@@]1(C)CO1")
251
>>> result_value("NC(=O)c1cccc(-c2cccc(OC(=O)NC3CCCCC3)c2)c1")
413
>>> result_value("O=C(Nc1ccc(OC(F)(F)F)cc1)c1sccc1NCc1ccnc2ccccc12")
295
